# Tested on: PmTbr T-box DNA-binding domain (GST fusion);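 also: 200 nM protein in PBS on universal arrays averaged over duplicate arrays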
# Sequence: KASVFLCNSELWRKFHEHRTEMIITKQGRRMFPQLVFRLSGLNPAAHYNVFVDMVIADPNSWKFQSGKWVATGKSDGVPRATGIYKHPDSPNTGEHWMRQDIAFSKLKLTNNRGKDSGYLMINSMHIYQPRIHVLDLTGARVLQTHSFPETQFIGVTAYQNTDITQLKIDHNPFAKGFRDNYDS
# ASSAY_NAME: PBM E-score of 8-mer (E-score (dimensionless, -0.5 to 0.5)); Tbr is Tbrain of the sea star Patiria miniata (Pm) or the sea urchin Strongylocentrotus purpuratus (Sp); higher = stronger binding preference
# REPORTED_CONDITIONS: the construct has about 5 more residues each side
The full ranking holds about 33,000 sequences; the median of “E-score (dimensionless, -0.5 to 0.5)” is about -0.049, and the highest 2% start at about 0.37. The entries come from a sample that favours the highest values as a whole.
Note to self: values exactly at 0.05 are YES. So PBM E-score of 8-mer at or above 0.05 is YES, below is NO.

| INPUT_SEQUENCE | ASSIGNED_CATEGORY |
| --- | --- |
| GTGCGATA | YES |
| GCGCTAAC | YES |
| AGTTCTTG | NO |
| GTGTCATA | YES |
| CTCTGAGC | NO |
| CTGTCAAC | YES |
| ACCGTCGT | YES |
| CTCCTAGC | YES |
| CGTGCAGC | NO |
| ACACGTGC | YES |
| ATTAGGTA | NO |
| AGTAGGTG | YES |
| ATATTCTC | NO |
| GCATATAC | NO |
| CTGCGACA | YES |
| TCGCTAAA | YES |
| ATTAGGTC | NO |
| AACCTATG | NO |
| AGTGTGTC | YES |
| AGAGTGAT | YES |
| CGTGTGGA | YES |
| GGCGCTAA | YES |
| AGGTGTGC | YES |
| ATTAGGTG | YES |
| CTGTGTGC | NO |
| ATTAGCAA | YES |
| GAGGAATA | NO |
| GGAGTTCA | NO |
| CACCTATG | YES |
| AATATAAA | NO |
| CTCATTGC | NO |
| AGGCAGCG | NO |
| GTTAAACA | NO |
| CACCTATC | YES |
| ACACACCC | YES |
| AATGTCGG | NO |
| ATGTGTGG | YES |
| AGCAGCAA | NO |
| CTGTCAAA | YES |
| TGCGCTAA | YES |
| GCGTGTTA | YES |
| CTTAGCAC | YES |
| AGGTGTGG | YES |
| AGCGCTAA | YES |
| CCATCAGG | NO |
| ATGTCAAC | YES |
| CGTTATCC | NO |
| GGTGTGAC | YES |
| GTGCGAAA | YES |
| AGTGTGAC | YES |
| TGCAGGAA | NO |
| ACTGTGAC | YES |
| CCGCTAAA | YES |
| ACGAACTG | NO |
| CACCTATA | YES |
| ACGCTAAC | YES |
| ATTAGCAG | YES |
| CTCCGTCC | NO |
| ATGAGCAG | NO |
| AGCAAACA | NO |
| CTGTCGAA | YES |
| CGTGTGTC | YES |
| CGGCCCTA | NO |
| CCGTGTTA | YES |
| GCCATTAC | NO |
| CGAGTGTC | YES |
| CTGCGATA | YES |
| ACGTGTTC | YES |
| GCTGTGAC | YES |
| AATAGGTA | NO |
| ACTAGGTC | NO |
| ACTAGGTA | NO |
| TTAGTGAA | NO |
| AGTAGGTA | NO |
| CGCGCTAG | YES |
| CAGTTTAA | NO |
| CGCTTGAA | NO |
| CGAAATTC | NO |
| ACGTGTAG | YES |
| ATTGTCGG | NO |
| AGATAAAT | NO |
| ACAGCTAC | YES |
| GTGCGACA | YES |
| CACTTAAA | YES |
| AACCTATC | NO |
| GTGTCAAC | YES |
| GTGTCAAA | YES |
| AACCTATT | NO |
| ACTAGGTG | YES |
| ATTTCCCG | NO |

Cited source for all entries: the supplement of paper PMC4166925
